Biological target: human uracil DNA glycosylase (UNG) (human, UniProt P13051 94-313)
Sequence (P13051 94-313): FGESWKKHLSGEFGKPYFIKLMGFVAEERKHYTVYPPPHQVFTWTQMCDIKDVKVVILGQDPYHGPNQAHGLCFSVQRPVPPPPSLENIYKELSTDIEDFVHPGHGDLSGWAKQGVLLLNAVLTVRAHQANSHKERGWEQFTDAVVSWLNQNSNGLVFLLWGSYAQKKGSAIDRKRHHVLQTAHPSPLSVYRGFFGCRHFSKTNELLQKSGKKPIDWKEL
Experiment: fluorescence anisotropy
Metric: Kd (µM)
Expressed in µM, but write only the number.

[Q] For the binder 5'-FAM 10-mer nontarget duplex (dsDNA) DNA 1: TCGATCGATG DNA 2: CATCGATCGA , what Kd is on record?
[A] 29
